Provide the recorded growth for the entries that follow.
- System: 786-0 renal
- assay: NCI-60 one-dose screen, 48 h (100 = growth as untreated, 0 = no growth, -100 = all killed)
- run conditions: 10 µM unless noted
About 83,000 compounds went through this panel and 20% of them were active in at least one assay; those are over-represented in the sample as a whole. Activity calls are given as the source filed them. Rule for the calls: active = growth percent below 10; inactive = the rest.

These recorded examples may help you get a feel for the data.
molecule | growth
O=S(=O)(NCCNc1nccc(-n2cnc3ccccc32)n1)c1ccc(Cl)cc1 | 99% (inactive)
CNCc1cccc2c1OCCCCCCC(C)(O)CC(C)(C)S(=O)(=O)c1ccc(cc1)-c1cnc(N)c(n1)C(=O)N2 (stereo not drawn) | -11.9% (active)

Fill in growth for each of the 2 molecules listed.
1. Cc1ccc(-c2nnc(SCc3ccc(O)c4ncccc34)n2-c2ccccc2)cc1
2. Cn1cc(-c2nc(N)nnc2-c2c[nH]c3ccc(Br)cc23)c2cc(Br)ccc21

1: 25% (inactive); 2: 51.1% (inactive)

Fill in growth for each of the 8 molecules listed.
1. CNC1CCc2c(sc(NC(=O)c3ccc(C(C)(C)C)cc3)c2C(N)=O)C1 (stereo not drawn)
2. Nc1nc(N)c2c(n1)NC(c1ccc(Cl)cc1)CC(c1ccc(Nc3nc(NCCO)nc(N4CCOCC4)n3)cc1)=N2 (stereo not drawn)
3. O=C(Nc1nonc1-c1ccccc1)c1ccc(C(F)(F)F)cc1
4. Cc1ccc(-n2cc(/C=C/C(=O)c3ccc(O)cc3)c(-c3ccc(S(C)(=O)=O)cc3)n2)cc1
5. CCCCCc1ccc(S(=O)(=O)Nc2cccc(-c3csc(NC(=O)CN4CCN(CCO)CC4)n3)c2)cc1
6. Nc1ccccc1NC(=O)c1ccc(NC(=O)C/C=C/c2cccnc2)cn1
7. COc1cccc(O)c1/C=C(/C)c1ccc2c(OC)cccc2[o+]1
8. Cc1ccc2sc3c(c2c1)OC(N)=C(C#N)C3c1cccc(F)c1 (stereo not drawn)

1: 24.9% (inactive); 2: 67.8% (inactive); 3: 90.4% (inactive); 4: 94.4% (inactive); 5: 71.1% (inactive); 6: 31.9% (inactive); 7: 101% (inactive); 8: 11.7% (inactive)

Name the recorded growth for `COc1ccc(C(=O)c2c(N)c(C#N)cn2-c2ccccc2OC)cc1` .
43.7% (inactive)
